molecular target: Large subunit-rSCFV5 fusion protein; test: cell-based or functional assay
Sequence (chain, as listed by the source): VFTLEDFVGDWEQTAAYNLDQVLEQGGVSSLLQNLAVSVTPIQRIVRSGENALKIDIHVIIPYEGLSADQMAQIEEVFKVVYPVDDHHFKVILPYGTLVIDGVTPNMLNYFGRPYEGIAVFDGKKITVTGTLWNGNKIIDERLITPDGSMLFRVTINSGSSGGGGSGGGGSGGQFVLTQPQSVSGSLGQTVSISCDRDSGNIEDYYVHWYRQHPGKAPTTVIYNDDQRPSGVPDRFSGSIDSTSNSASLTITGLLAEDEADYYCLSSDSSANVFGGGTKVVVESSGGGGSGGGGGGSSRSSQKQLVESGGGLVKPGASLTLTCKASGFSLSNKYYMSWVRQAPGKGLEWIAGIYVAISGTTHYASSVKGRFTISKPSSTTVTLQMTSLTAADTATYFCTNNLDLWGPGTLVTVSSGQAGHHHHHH
readoutType: RLU, PCT+ (RLU)

Previously resolved entries follow.
{"binder": "VEGYRLFEKVW (peptide, part only; not given: rSCFV18 scFv part, part only) [rSCFV18-small subunit mutant fusion protein RB172]", "RLU, PCT+ [RLU]": 41400}
{"binder": "VSGYRLFDKKW (peptide, part only; not given: rSCFV18 scFv part, part only) [rSCFV18-small subunit mutant fusion protein RC-261]", "RLU, PCT+ [RLU]": 7220}
{"binder": "VEGYRLFNRVS (peptide, part only; not given: rSCFV18 scFv part, part only) [rSCFV18-small subunit mutant fusion protein RB027]", "RLU, PCT+ [RLU]": 102000}
{"binder": "VSGWRIFDRKS (peptide, part only; not given: rSCFV18 scFv part, part only) [rSCFV18-small subunit mutant fusion protein RC-041]", "RLU, PCT+ [RLU]": 11800}
{"binder": "VEGYRLHEKIS (peptide, part only; not given: rSCFV18 scFv part, part only) [rSCFV18-small subunit mutant fusion protein RA128]", "RLU, PCT+ [RLU]": 17900}

[A] VEGYRLFDRKS (peptide, part only; not given: rSCFV18 scFv part, part only) [rSCFV18-small subunit mutant fusion protein RC-218]
[B] VEGYRLFDKKW (peptide, part only; not given: rSCFV18 scFv part, part only) [rSCFV18-small subunit mutant fusion protein RB239]
[C] VEGYRLFEKKL (peptide, part only; not given: rSCFV18 scFv part, part only) [rSCFV18-small subunit mutant fusion protein RB149]
Q: Order field: RLU, PCT+ | Direction: descending (largest first) Returns: the labels listed in the requested order.
A: C, B, A
(C: 79100 RLU, B: 31900 RLU, A: 7240 RLU)
